Please provide measured melting point for the entries that follow.

Challenge: # input molecule: CC(C)c1ccc(C[C@@H](NC(=O)c2ccc(F)c3ccccc23)[C@@H](O)c2ccc(F)cc2)cc1 (racemic) ; wanted: its melting point
Response given: 189 to 192 °C

Challenge: # input molecule: CC(C)(C)Cc1ccc(C[C@@H](NC(=O)c2cccc3c2C=CCCC3)[C@@H](O)c2cccc(Cl)c2)cc1 (racemic) ; wanted: its melting point
Response given: 147 to 149 °C

Challenge: # input molecule: O=C(N[C@H](Cc1ccc(C(F)(F)F)cc1)[C@@H](O)c1ccc(F)cc1)c1cc([N+](=O)[O-])cc2ccccc12 (racemic) ; wanted: its melting point
Response given: 231 to 232 °C

Origin of values: patent US6982348B2
